Biological target: Tyrosine-protein phosphatase non-receptor type 1 (Homo sapiens)
Sequence (P18031 whole entry): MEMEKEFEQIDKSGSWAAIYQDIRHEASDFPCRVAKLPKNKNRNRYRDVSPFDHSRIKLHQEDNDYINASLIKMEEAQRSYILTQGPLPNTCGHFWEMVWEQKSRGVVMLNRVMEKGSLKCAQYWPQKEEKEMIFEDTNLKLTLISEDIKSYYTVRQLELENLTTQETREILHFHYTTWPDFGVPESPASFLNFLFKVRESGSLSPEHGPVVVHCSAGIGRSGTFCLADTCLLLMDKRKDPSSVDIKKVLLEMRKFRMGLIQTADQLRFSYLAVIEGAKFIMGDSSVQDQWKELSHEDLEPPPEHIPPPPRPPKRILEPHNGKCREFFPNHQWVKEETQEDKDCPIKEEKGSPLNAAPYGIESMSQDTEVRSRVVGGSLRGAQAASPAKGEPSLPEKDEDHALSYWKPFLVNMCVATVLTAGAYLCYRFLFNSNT
Experiment: Inhibition of recombinant human PTP-1B expressed in Escherichia coli TB1 using p-nitrophenyl phosphate as substrate
Below, each entry is listed alongside its reported pIC50.
Bear in mind: pIC50 is minus log10 of a mol/L concentration; give just that figure.

[in] Consider the compound `COC(=O)[C@]12CCC(C)(C)C=C1[C@H]1CC[C@@H]3[C@@]4(C)CCC(=O)C(C)(C)[C@@H]4CC[C@@]3(C)[C@]1(C)CC2` and give its recorded pIC50.
[out] 4.97

[in] Kindly indicate its recorded pIC50. Item: `CC1(C)C=C2[C@H]3CC[C@@H]4[C@@]5(C)CCC6(OCCO6)C(C)(C)[C@@H]5CC[C@@]4(C)[C@]3(C)CC[C@@]2(CO)CC1`
[out] 5.12
